- protocol-text: Selectivity index, ratio of CC50 for cytotoxicity to EC50 for SARS coronavirus
- Assay type: toxicity
- measurement-setup: read-out: Ratio CC50/EC50
Provide the recorded selectivity ratio for the entries that follow.
Number only, please.

# query: selectivity ratio of entry CC(=O)OC[C@H]1O[C@@H](n2c(-c3cccs3)cc(-c3cccs3)c(C#N)c2=O)[C@H](OC(C)=O)[C@@H](OC(C)=O)[C@H]1OC(C)=O
1.9

Try this compound too: CC(=O)OC[C@H]1O[C@@H](n2c(-c3ccccn3)cc(-c3ccc(Cl)cc3)c(C#N)c2=O)[C@H](OC(C)=O)[C@@H](OC(C)=O)[C@@H]1OC(C)=O
4.3

====

- protocol-text: Selectivity index, ratio of CC50 for cytotoxicity to EC50 for Influenza A virus H3N2
- Format: toxicity
- measurement-setup: read-out: Ratio CC50/EC50
recorded-endpoint: selectivity ratio

Which value of selectivity ratio has been reported for N#Cc1c(-c2cccs2)cc(-c2cccs2)nc1O in the records?
> 4.2

Please do the same for NC(=O)c1ncn([C@@H]2O[C@H](CO)[C@@H](O)[C@H]2O)n1 as well.
> 160

Also need CC(=O)OC[C@H]1O[C@@H](n2c(-c3cccs3)cc(-c3cccs3)c(C#N)c2=O)[C@H](OC(C)=O)[C@@H](OC(C)=O)[C@@H]1OC(C)=O , thanks.
> 2.5

Continue with CC(=O)OC[C@H]1O[C@@H](n2c(-c3cccs3)cc(-c3ccc(C(C)C)cc3)c(C#N)c2=O)[C@H](OC(C)=O)[C@@H](OC(C)=O)[C@@H]1OC(C)=O
> 3

Moving on to the next compound: CC(C)c1ccc(-c2cc(-c3cccs3)[nH]c(=O)c2C#N)cc1
> 4.5

Item: CC(=O)OC[C@H]1O[C@@H](n2c(-c3ccccn3)cc(-c3ccc(Cl)cc3)c(C#N)c2=O)[C@H](OC(C)=O)[C@@H](OC(C)=O)[C@@H]1OC(C)=O
> 4.2

====

- System: Human alphaherpesvirus 2
- protocol-text: Antiviral activity against HSV2 assessed as inhibition of viral infection
- Format: functional, organism-based
pEC50: −log10 of the molar value.
Record form. Attribute: pEC50. Fill in for each entry.

Give the measured pEC50 of N#Cc1c(-c2cccs2)cc(-c2cccs2)nc1O .
< 4.92

Also, Nc1nc2c(ncn2COCCO)c(=O)[nH]1 [ACYCLOVIR] please.
5.02

Next entry: CC(=O)OC[C@H]1O[C@@H](n2c(-c3cccs3)cc(-c3ccc(C(C)C)cc3)c(C#N)c2=O)[C@H](OC(C)=O)[C@@H](OC(C)=O)[C@@H]1OC(C)=O
4.22

Another molecule to look at: CC(=O)OC[C@H]1O[C@@H](n2c(-c3ccccn3)cc(-c3ccc(Cl)cc3)c(C#N)c2=O)[C@H](OC(C)=O)[C@@H](OC(C)=O)[C@@H]1OC(C)=O
< 3.52

Then CC(=O)OC[C@H]1O[C@@H](n2c(-c3cccs3)cc(-c3cccs3)c(C#N)c2=O)[C@H](OC(C)=O)[C@@H](OC(C)=O)[C@@H]1OC(C)=O ?
< 4.22

# iterate: CC(C)c1ccc(-c2cc(-c3cccs3)[nH]c(=O)c2C#N)cc1
< 3.52

Next molecule up: N#Cc1c(-c2ccc(Cl)cc2)cc(-c2ccccn2)[nH]c1=O
< 3.52

Could you do the same for CC(=O)OC[C@H]1O[C@@H](n2c(-c3cccs3)cc(-c3cccs3)c(C#N)c2=O)[C@H](OC(C)=O)[C@@H](OC(C)=O)[C@H]1OC(C)=O , please?
< 4.22

====

Please provide measured EC50 for the entries that follow.
- Tested on: Influenza A virus
- protocol-text: Antiviral activity against Influenza A virus H5N1 by cytopathy assay
- Assay type: functional, organism-based

GET /values?readout=EC50&item= NC(=O)c1ncn([C@@H]2O[C@H](CO)[C@@H](O)[C@H]2O)n1 [RIBAVIRIN]
4.2 µM

Next compound up: N#Cc1c(-c2ccc(Cl)cc2)cc(-c2ccccn2)[nH]c1=O
> 100 µM

Query CC(=O)OC[C@H]1O[C@@H](n2c(-c3ccccn3)cc(-c3ccc(Cl)cc3)c(C#N)c2=O)[C@H](OC(C)=O)[C@@H](OC(C)=O)[C@@H]1OC(C)=O next
3.2 µM

CC(C)c1ccc(-c2cc(-c3cccs3)[nH]c(=O)c2C#N)cc1 ?
32 µM

Okay, and CC(=O)OC[C@H]1O[C@@H](n2c(-c3cccs3)cc(-c3ccc(C(C)C)cc3)c(C#N)c2=O)[C@H](OC(C)=O)[C@@H](OC(C)=O)[C@@H]1OC(C)=O ?
32 µM

Same question, CC(=O)OC[C@H]1O[C@@H](n2c(-c3cccs3)cc(-c3cccs3)c(C#N)c2=O)[C@H](OC(C)=O)[C@@H](OC(C)=O)[C@@H]1OC(C)=O this time
> 100 µM

And then CC(=O)OC[C@H]1O[C@@H](n2c(-c3cccs3)cc(-c3cccs3)c(C#N)c2=O)[C@H](OC(C)=O)[C@@H](OC(C)=O)[C@H]1OC(C)=O , what is it?
> 19 µM

Same again, this time with N#Cc1c(-c2cccs2)cc(-c2cccs2)nc1O
> 100 µM

====

- System: SARS-CoV
- protocol-text: Antiviral activity against SARS coronavirus by visual method
- Assay type: functional, organism-based
- measurement-setup: Severe acute respiratory syndrome-related coronavirus
recorded-endpoint: EC50 (µM)
# output: bare number, implied unit µM

Could you share which EC50 value was measured for CC(=O)OC[C@H]1O[C@@H](n2c(-c3ccccn3)cc(-c3ccc(Cl)cc3)c(C#N)c2=O)[C@H](OC(C)=O)[C@@H](OC(C)=O)[C@@H]1OC(C)=O ?
8.3

====

- protocol-text: Selectivity index, ratio of CC50 for cytotoxicity to EC50 for Influenza B virus
- Assay type: toxicity
- measurement-setup: read-out: Ratio CC50/EC50
So I've got a bunch of molecules here, and I need their selectivity ratio values.

selectivity ratio lookup needed for CC(C)c1ccc(-c2cc(-c3cccs3)[nH]c(=O)c2C#N)cc1 , thanks.
> 2.2

And what about the molecule CC(=O)OC[C@H]1O[C@@H](n2c(-c3cccs3)cc(-c3cccs3)c(C#N)c2=O)[C@H](OC(C)=O)[C@@H](OC(C)=O)[C@@H]1OC(C)=O ?
1

Next entry: CC(=O)OC[C@H]1O[C@@H](n2c(-c3cccs3)cc(-c3ccc(C(C)C)cc3)c(C#N)c2=O)[C@H](OC(C)=O)[C@@H](OC(C)=O)[C@@H]1OC(C)=O
> 2.2

How about this molecule: NC(=O)c1ncn([C@@H]2O[C@H](CO)[C@@H](O)[C@H]2O)n1
> 130

====

- protocol-text: Selectivity index, ratio of CC50 for cytotoxicity to EC50 for Influenza A virus H1N1
- Assay type: toxicity
- measurement-setup: read-out: Ratio CC50/EC50
recorded-endpoint: selectivity ratio

Need selectivity ratio, item N#Cc1c(-c2ccc(Cl)cc2)cc(-c2ccccn2)[nH]c1=O
> 3.8

Please answer likewise for NC(=O)c1ncn([C@@H]2O[C@H](CO)[C@@H](O)[C@H]2O)n1 [RIBAVIRIN]
> 32

Now the same for N#Cc1c(-c2cccs2)cc(-c2cccs2)nc1O
> 3.1

====

- protocol-text: Selectivity index, ratio of CC50 for cytotoxicity to EC50 for HSV1
- Assay type: toxicity
- measurement-setup: read-out: Ratio CC50/EC50
recorded-endpoint: selectivity ratio

Reported selectivity ratio, compound CC(=O)OC[C@H]1O[C@@H](n2c(-c3cccs3)cc(-c3cccs3)c(C#N)c2=O)[C@H](OC(C)=O)[C@@H](OC(C)=O)[C@H]1OC(C)=O : ____
< 2.4

Request: CC(=O)OC[C@H]1O[C@@H](n2c(-c3cccs3)cc(-c3cccs3)c(C#N)c2=O)[C@H](OC(C)=O)[C@@H](OC(C)=O)[C@@H]1OC(C)=O
< 4

Can you check CC(C)c1ccc(-c2cc(-c3cccs3)[nH]c(=O)c2C#N)cc1 next?
1

Another compound: N#Cc1c(-c2cccs2)cc(-c2cccs2)nc1O
< 4.7

====

Field: selectivity ratio. Provide a value for each of the compounds that follow.
- protocol-text: Selectivity index, ratio of CC50 for cytotoxicity to EC50 for HSV2
- Assay type: toxicity
- measurement-setup: read-out: Ratio CC50/EC50

Look at this compound and give its reported selectivity ratio. CC(C)c1ccc(-c2cc(-c3cccs3)[nH]c(=O)c2C#N)cc1
1

Please answer likewise for N#Cc1c(-c2cccs2)cc(-c2cccs2)nc1O
< 4.8

Lookup CC(=O)OC[C@H]1O[C@@H](n2c(-c3cccs3)cc(-c3cccs3)c(C#N)c2=O)[C@H](OC(C)=O)[C@@H](OC(C)=O)[C@H]1OC(C)=O
< 2.4

What do you get for CC(=O)OC[C@H]1O[C@@H](n2c(-c3ccccn3)cc(-c3ccc(Cl)cc3)c(C#N)c2=O)[C@H](OC(C)=O)[C@@H](OC(C)=O)[C@@H]1OC(C)=O ?
1

What about CC(=O)OC[C@H]1O[C@@H](n2c(-c3cccs3)cc(-c3cccs3)c(C#N)c2=O)[C@H](OC(C)=O)[C@@H](OC(C)=O)[C@@H]1OC(C)=O ?
< 4

Next compound: CC(=O)OC[C@H]1O[C@@H](n2c(-c3cccs3)cc(-c3ccc(C(C)C)cc3)c(C#N)c2=O)[C@H](OC(C)=O)[C@@H](OC(C)=O)[C@@H]1OC(C)=O
> 4.9

Thanks! And N#Cc1c(-c2ccc(Cl)cc2)cc(-c2ccccn2)[nH]c1=O ?
1

Nc1nc2c(ncn2COCCO)c(=O)[nH]1 , same question.
> 10.4
